All figures here come from patent US4010264A.

Each entry below carries its recorded log10 MIC.
Test system: Staphylococcus aureus A321
Assay: MIC, agar serial dilution test
Format: cell-based
Conditions: Staphylococcus aureus A321; 24 hours at 37° C; read-out: MIC
Observation Type: log10 MIC (log10 of the value in µg/mL)

Compound	log10 MIC
CC1(C)SC2C(NC(=O)C(C(N)=O)c3cc(-c4c(Cl)cccc4Cl)no3)C(=O)N2C1C(=O)O (stereo not shown) [Example XX]	-0.60
CC1(C)S[C@@H]2C(NC(=O)Cc3onc(-c4c(Cl)cccc4Cl)c3C(=O)O)C(=O)N2[C@H]1C(=O)O (stereo partly shown) [Example V]	0.00
Cc1c(-c2c(Cl)cccc2Cl)noc1CC(=O)NC1C(=O)N2C1SC(C)(C)C2C(=O)O (stereo not shown) [Example X]	-1.52
CC(=O)OCC1=C(C(=O)O)N2C(=O)C(NC(=O)Cc3cc(C)no3)C2SC1 (stereo not shown) [Example XXII]	-0.30
Cc1onc(-c2ccccc2Cl)c1C(=O)N[C@@H]1C(=O)N2[C@@H]1SC(C)(C)[C@@H]2C(=O)O [Cloxazilline, Cloxacillin, reference compound]	-1.22
CC(=O)OCC1=C(C(=O)O)N2C(=O)C(NC(=O)Cc3cc(C(C)(C)C)no3)C2SC1 (stereo not shown) [XXXIV]	0.18
CC1=C(C(=O)O)N2C(=O)C(NC(=O)Cc3onc(-c4c(Cl)cccc4Cl)c3C)C2SC1 (stereo not shown) [VIII]	-0.30
Cc1cc(C)c(-c2cc(C(C)C(=O)NC3C(=O)N4C3SC(C)(C)C4C(=O)O)on2)c(C)c1 (stereo not shown) [Example XI]	-1.22
Cc1cc(C)c(-c2cc(CC(=O)NC3C(=O)N4C3SC(C)(C)C4C(=O)O)on2)c(C)c1 (stereo not shown) [VI]	-1.22
Cc1cc(CC(=O)NC2C(=O)N3[C@@H]2SC(C)(C)[C@@H]3C(=O)O)on1 (stereo partly shown) [Example XXI]	-0.60
CCOc1ccc2ccccc2c1C(=O)N[C@@H]1C(=O)N2[C@@H]1SC(C)(C)[C@@H]2C(=O)O [Nafcilline, Nafcillin, reference compound]	-0.60
CC1=C(C(=O)O)N2C(=O)C(NC(=O)Cc3onc(-c4c(C)cc(C)cc4C)c3C)C2SC1 (stereo not shown) [XIII]	0.18
Cc1onc(-c2c(Cl)cccc2Cl)c1C(=O)N[C@@H]1C(=O)N2[C@@H]1SC(C)(C)[C@@H]2C(=O)O [Dicloxacillin, reference compound]	-0.92
CC(=O)OCC1=C(C(=O)O)N2C(=O)C(NC(=O)Cc3cc(-c4c(C)cc(C)cc4C)no3)C2SC1 (stereo not shown) [VII]	-1.22
CC1(C)SC2C(NC(=O)C(N)c3cc(-c4c(Cl)cccc4Cl)no3)C(=O)N2C1C(=O)O (stereo not shown) [Example XVIII]	-0.92
CC1(C)SC2C(NC(=O)C(NC(=O)OCc3ccc([N+](=O)[O-])cc3)c3cc(-c4c(Cl)cccc4Cl)no3)C(=O)N2C1C(=O)O (stereo not shown) [Example XVII]	0.00
